All values here come from patent US6620953B1.

- experiment notes: Solubility comparison in toluene at room temperature
- Assay type: physicochemical
- study conditions: 50 mg in toluene at room temperature
Can you tell me solubility for the items I'm about to list?

Problem: What measured solubility goes with CC1=Cc2c(ccc3ccccc23)[C]12[Si](C)(C)[C]1(C(C)=Cc3c1ccc1ccccc31)[Zr]2([Cl])[O]c1ccc(C(C)(C)C)cc1C(C)(C)C (stereo not shown) ?
Result: > 13 mM

Problem: Please look up its solubility: CC1=Cc2ccccc2[C]12[Si](C)(C)[C]1(C(C)=Cc3ccccc31)[Zr]2([Cl])[O]c1ccc(C(C)(C)C)cc1C(C)(C)C (stereo not shown)
Result: > 15 mM
